# Target under test: MMP9 (Homo sapiens)
# Construct: purchased BioMol International AK-410
# Experiment description: Matrix metalloproteinase enzyme activity assay, MMP9
# Assay type: biochemical
# Particulars: 0.01% test compound; Table 3
Measure: inhibition at 0.01 % (%)

| Compound | Target under test | Scale unit | Measured |
| --- | --- | --- | --- |
| CCC/C=C\COC(C)=O [Leaf Acetate, cis-2-hexenyl acetate] | MMP9 (Homo sapiens) | % | 22 |

A. CC/C=C\CCCCC=O [Cis-6-Nonenal, cis-6-nonenal]
B. CC/C=C(\C)C(O)CCCCC (stereo not drawn)
Returns: the label, A or B , whose recorded inhibition at 0.01 % is the lower number. Mark your answer with the label of the selected entry.
A

---

# Target under test: COX-2 (Ovis aries)
# Construct: purchased Cayman Chemical 760111
# Sequence (P79208 17-603): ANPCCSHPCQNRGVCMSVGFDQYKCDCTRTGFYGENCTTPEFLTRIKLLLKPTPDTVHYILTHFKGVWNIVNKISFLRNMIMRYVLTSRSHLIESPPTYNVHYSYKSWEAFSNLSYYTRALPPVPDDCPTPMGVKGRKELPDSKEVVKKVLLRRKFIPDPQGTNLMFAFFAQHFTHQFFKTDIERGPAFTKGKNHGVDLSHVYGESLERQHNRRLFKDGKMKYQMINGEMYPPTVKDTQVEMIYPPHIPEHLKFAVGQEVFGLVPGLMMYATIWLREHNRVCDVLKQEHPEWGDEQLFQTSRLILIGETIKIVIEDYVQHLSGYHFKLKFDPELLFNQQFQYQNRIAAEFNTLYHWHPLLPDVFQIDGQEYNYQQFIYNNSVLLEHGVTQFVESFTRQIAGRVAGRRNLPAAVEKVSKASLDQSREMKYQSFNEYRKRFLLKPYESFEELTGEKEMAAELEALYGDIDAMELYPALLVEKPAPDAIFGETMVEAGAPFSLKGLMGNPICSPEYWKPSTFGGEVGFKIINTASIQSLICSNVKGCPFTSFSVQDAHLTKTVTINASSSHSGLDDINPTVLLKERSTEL
# Experiment description: Colorimetric COX (ovine) inhibitor screening assay, COX-2
# Type: biochemical
# Particulars: 0.25 h; 0.001% test compound; Table 3
Measure: inhibition at 0.001 % (%)

| Molecule | Target under test | Measure | Scale unit | Measured |
| --- | --- | --- | --- | --- |
| O=C1CCCCCCCCCCCC(=O)OCCO1 [Ethylene Brassylate, 1,4-dioxacycloheptadecane-5,17-dione] | COX-2 (Ovis aries) | inhibition at 0.001 % | % | 20.6 |
| CCC/C(CC(=O)CC)=N/O [Stemone, (Z)-5-(hydroxyimino)octan-3-one] | COX-2 (Ovis aries) | inhibition at 0.001 % | % | 22.3 |
| C=C1CCCC(C)(C)C1C(=O)OC (stereo not shown) | COX-2 (Ovis aries) | inhibition at 0.001 % | % | 23.3 |
| CC1=CCC(/C=C/C(C)(C)C(C)O)C1(C)C (stereo not shown) | COX-2 (Ovis aries) | inhibition at 0.001 % | % | 36.1 |
| CCOC(=O)C1C2C=CC(C2)C1C(C)C (stereo not shown) | COX-2 (Ovis aries) | inhibition at 0.001 % | % | 25.1 |
| CCCCCC1CCC(=O)O1 (stereo not shown) [Aldehyde C-18, 5-pentyldihydrofuran-2(3H)-one] | COX-2 (Ovis aries) | inhibition at 0.001 % | % | 22.6 |
| CC/C=C\CCCCC=O [Cis-6-Nonenal, cis-6-nonenal] | COX-2 (Ovis aries) | inhibition at 0.001 % | % | 27.1 |

---

# Target under test: MMP9 (Homo sapiens)
# Construct: purchased BioMol International AK-410
# Experiment description: Matrix metalloproteinase enzyme activity assay, MMP9
# Format: biochemical
# Particulars: 0.001% test compound; negative = inhibition vs diluent control; Table 2
Measure: MMP9 Inhibition (0.001%)

| Molecule | Scale unit | MMP9 Inhibition (0.001%) |
| --- | --- | --- |
| CCCCCCCCC/C=C/C=O [2-dodecenal (E)] | % | −24.98 |
| CC(=O)/C=C/C1=C(C)CCCC1(C)C | % | −19.82 |
| CCCCCCCCCCCC=O | % | −27.64 |
| CCCC/C=C/C=C/C=O | % | −19.87 |

---

# Target under test: MMP9 (Homo sapiens, UniProt P14780)
# Construct: purchased BioMol International AK-410
# Sequence (P14780 107-444 limits assumed): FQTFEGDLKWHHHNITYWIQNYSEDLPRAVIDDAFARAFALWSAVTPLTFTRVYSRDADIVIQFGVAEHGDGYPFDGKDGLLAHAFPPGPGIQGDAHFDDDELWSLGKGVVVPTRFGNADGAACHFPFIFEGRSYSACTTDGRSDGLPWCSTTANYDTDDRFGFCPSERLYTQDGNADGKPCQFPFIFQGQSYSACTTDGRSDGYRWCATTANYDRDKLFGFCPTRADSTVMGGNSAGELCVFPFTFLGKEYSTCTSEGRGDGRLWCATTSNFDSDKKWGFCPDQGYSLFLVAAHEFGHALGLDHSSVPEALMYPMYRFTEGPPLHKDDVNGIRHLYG
# Experiment description: Matrix metalloproteinase enzyme activity assay, MMP9
# Assay type: biochemical
# Particulars: 0.01% test compound; Table 3
Measure: inhibition at 0.01 % (%)

| Compound | Measure | Scale unit | Measured |
| --- | --- | --- | --- |
| O=C1CCCCCCCCCCCC(=O)OCCO1 [Ethylene Brassylate, 1,4-dioxacycloheptadecane-5,17-dione] | inhibition at 0.01 % | % | 33 |
| CCCCCC1CCC(=O)O1 (stereo not drawn) [Aldehyde C-18, 5-pentyldihydrofuran-2(3H)-one] | inhibition at 0.01 % | % | 22.2 |
| CCOC(=O)C1C2C=CC(C2)C1C(C)C (stereo not drawn) | inhibition at 0.01 % | % | 26.8 |
